Molecular target: T1, recombinant human IL-12 (rhIL-12) (human, UniProt P29459 23-219; P29460 23-328)
T1 chain 1: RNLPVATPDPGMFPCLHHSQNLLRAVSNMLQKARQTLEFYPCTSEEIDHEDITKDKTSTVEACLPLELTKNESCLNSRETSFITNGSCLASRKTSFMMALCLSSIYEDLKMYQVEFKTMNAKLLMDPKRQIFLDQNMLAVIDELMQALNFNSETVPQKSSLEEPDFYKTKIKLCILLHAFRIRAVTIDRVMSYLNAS
T1 chain 2: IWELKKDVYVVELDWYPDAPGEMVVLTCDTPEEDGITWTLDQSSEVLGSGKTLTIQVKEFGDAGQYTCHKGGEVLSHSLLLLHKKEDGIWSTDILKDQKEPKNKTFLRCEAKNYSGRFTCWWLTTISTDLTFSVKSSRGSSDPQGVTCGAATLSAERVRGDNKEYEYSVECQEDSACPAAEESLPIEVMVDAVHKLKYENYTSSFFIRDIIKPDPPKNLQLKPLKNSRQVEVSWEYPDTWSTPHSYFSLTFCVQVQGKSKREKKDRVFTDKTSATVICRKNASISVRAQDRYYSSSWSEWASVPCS
Assay: BIAcore
measured_metric: koff (s⁻¹)

INSERT INTO results (binder, unit, readout_value) VALUES
  ('QSYNRGTHPALL [Y61 L92 N]', 's⁻¹', 0.000347),
  ('QSYDVGTHPALL [Y61 L93 V]', 's⁻¹', 0.000269),
  ('QSYARGTHPALL [Y61 L92 A]', 's⁻¹', 0.000357);

[A] QSYDRQTHPALL [Y61 L94 Q]
[B] QSYDRATHPALL [Y61 L94 A]
Which value of koff is smaller, the one for A or the one for B ? Selection: enter the item's label.
A
(A: 0.00025 s⁻¹, B: 0.000526 s⁻¹)

Cited source for all entries: patent US20110123544A1
